The entries below are paired with their reported solubility.
# protocol-details: Solubility of the compound at pH 2
# Assay type: physicochemical
# test-settings: buffer, read-out: solubility
attribute-measured: solubility (µM)

>>> endpoint_value("O=C(O)CC1CCC2(CCN(c3ccc(-c4nc5cc(C(F)(F)F)ccc5[nH]4)cn3)CC2)OC1 (racemic)")
179
>>> endpoint_value("O=C(O)CC1CCOC2(CCN(c3ccc(-c4nc5cc(C(F)(F)F)ccc5[nH]4)cn3)CC2)C1 (racemic)")
185
>>> endpoint_value("O=C(O)C[C@@H]1COC2(CCN(c3ccc(-c4nc5cc(C(F)(F)F)ccc5[nH]4)cn3)CC2)C1")
171
>>> endpoint_value("O=C(O)C1CCC2(CCN(c3ccc(-c4nc5cc(C(F)(F)F)ccc5[nH]4)cn3)CC2)OC1 (configuration not stated)")
174
>>> endpoint_value("O=C(O)CN1CCC2(CC1)CCN(c1ccc(-c3nc4cc(C(F)(F)F)ccc4[nH]3)cn1)CC2")
207
>>> endpoint_value("O=C(O)C[C@H]1COC2(CCN(c3ccc(-c4nc5cc(C(F)(F)F)ccc5[nH]4)cn3)CC2)C1")
170
>>> endpoint_value("O=C(O)CC1COC2(CCN(c3ccc(-c4nc5cc(C(F)(F)F)ccc5[nH]4)cn3)CC2)C1 (racemic)")
170
>>> endpoint_value("O=C(O)C1CCC2(CCN(c3ccc(-c4nc5cc(C(F)(F)F)ccc5[nH]4)cn3)CC2)CO1 (configuration not stated)")
167
>>> endpoint_value("O=C(O)CC1CCC2(CCN(c3ccc(-c4nc5cc(C(F)(F)F)ccc5[nH]4)cn3)CC2)O1 (racemic)")
170

* * *

pIC50: −log10 of the molar value.
These molecules were tested on Cytochrome P450 3A4 (Homo sapiens); pIC50 is the recorded read-out.
Sequence (P08684 whole entry): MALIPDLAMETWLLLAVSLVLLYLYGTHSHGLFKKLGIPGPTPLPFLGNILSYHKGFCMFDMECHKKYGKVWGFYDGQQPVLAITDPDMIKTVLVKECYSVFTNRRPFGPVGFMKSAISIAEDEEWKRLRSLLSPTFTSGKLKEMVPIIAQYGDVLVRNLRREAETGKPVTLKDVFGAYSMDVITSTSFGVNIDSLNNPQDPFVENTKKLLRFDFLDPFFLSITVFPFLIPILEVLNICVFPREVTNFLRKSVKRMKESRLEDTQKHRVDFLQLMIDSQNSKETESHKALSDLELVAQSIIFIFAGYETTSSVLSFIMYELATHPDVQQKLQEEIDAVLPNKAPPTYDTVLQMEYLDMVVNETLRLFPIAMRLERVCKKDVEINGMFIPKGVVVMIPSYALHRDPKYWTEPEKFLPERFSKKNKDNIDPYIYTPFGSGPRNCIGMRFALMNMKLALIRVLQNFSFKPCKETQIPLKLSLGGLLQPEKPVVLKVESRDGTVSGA
attribute-measured: pIC50

>>> endpoint_value("O=C(O)CC1CCC2(CCN(c3ccc(-c4nc5cc(C(F)(F)F)ccc5[nH]4)cn3)CC2)O1 (racemic)")
"< 4.30"
>>> endpoint_value("O=C(O)CC1CCC2(CC1)CCN(c1ccc(-c3nc4cc(C(F)(F)F)ccc4[nH]3)cn1)CC2")
5.19
>>> endpoint_value("O=C(O)C1CCC2(CCN(c3ccc(-c4nc5cc(C(F)(F)F)ccc5[nH]4)cn3)CC2)OC1 (stereo unspecified)")
"< 4.30"
>>> endpoint_value("O=C(O)CN1CCC2(CC1)CCN(c1ccc(-c3nc4cc(C(F)(F)F)ccc4[nH]3)cn1)CC2")
"< 4.30"
>>> endpoint_value("O=C(O)CC1CCOC2(CCN(c3ccc(-c4nc5cc(C(F)(F)F)ccc5[nH]4)cn3)CC2)C1 (stereo in doubt; form 1)")
"< 4.30"
>>> endpoint_value("O=C(O)CC1CCC2(CCN(c3ccc(-c4nc5cc(C(F)(F)F)ccc5[nH]4)cn3)CC2)O1 (single isomer, unassigned; form 2)")
"< 4.30"

* * *

# assayed-system: Diacylglycerol O-acyltransferase 1 (Homo sapiens)
# Sequence (O75907 whole entry): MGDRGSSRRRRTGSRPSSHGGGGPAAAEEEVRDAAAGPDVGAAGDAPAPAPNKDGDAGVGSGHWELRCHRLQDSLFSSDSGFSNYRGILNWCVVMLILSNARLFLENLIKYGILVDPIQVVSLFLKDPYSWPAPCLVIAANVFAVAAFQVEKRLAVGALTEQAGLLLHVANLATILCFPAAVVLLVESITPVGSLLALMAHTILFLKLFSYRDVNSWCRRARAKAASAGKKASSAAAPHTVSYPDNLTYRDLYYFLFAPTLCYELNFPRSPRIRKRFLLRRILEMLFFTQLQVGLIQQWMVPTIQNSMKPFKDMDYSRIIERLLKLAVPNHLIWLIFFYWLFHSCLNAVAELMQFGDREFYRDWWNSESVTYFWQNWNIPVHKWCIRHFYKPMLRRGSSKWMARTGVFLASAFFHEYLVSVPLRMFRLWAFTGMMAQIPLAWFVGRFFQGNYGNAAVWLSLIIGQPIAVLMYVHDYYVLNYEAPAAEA
# protocol-details: Inhibition of human DGAT1 expressed in yeast membrane fraction assessed as inhibition of triglyceride formation using diolein/oleoyl-CoA as substrate measured after 1 hr by 7-diethylamino-3-(4'-maleimidylphenyl)-4-methylcoumarin based fluorescence analysis
The entries below are paired with their reported IC50.
attribute-measured: IC50 (nM)

>>> endpoint_value("Cc1cccc(Cl)c1NC(=O)N1CCN(c2ccc(-c3nc4cc(C(F)(F)F)ccc4[nH]3)cn2)CC1")
89
>>> endpoint_value("Clc1ccc2[nH]c(-c3ccc(N4CCC5(CC4)OCc4ccccc45)nc3)nc2c1")
137
>>> endpoint_value("O=C(O)CC1CCC2(CC1)CCN(c1ccc(-c3nc4cc(C(F)(F)F)ccc4[nH]3)cn1)CC2")
6
>>> endpoint_value("O=C1OC2(CCN(c3ccc(-c4nc5cc(Cl)ccc5[nH]4)cn3)CC2)c2cnccc21")
66
>>> endpoint_value("CS(=O)(=O)C1CCN(c2ccc(-c3nc4cc(C(F)(F)F)ccc4[nH]3)cn2)CC1")
216
>>> endpoint_value("N#Cc1ccc(N2C(=O)NC3(CCN(c4ccc(-c5nc6cc(C(F)(F)F)ccc6[nH]5)cn4)CC3)C2=O)cc1")
377
